# Assay system: Pseudomonas aeruginosa LpxC enzyme (Pseudomonas aeruginosa (strain ATCC 15692 / DSM 22644 / CIP 104116 / JCM 14847 / LMG 12228 / 1C / PRS 101 / PAO1), UniProt P47205)
# Test protocol: biochemical
# Type: biochemical
# Condition details: Table 1; read-out: Pseudomonas aeruginosa LpxC IC50
Parameter measured: IC50 (nM)
Give your result in nM as a bare value.

QUERY: What value of IC50 has been reported for the following molecule? CNC(=O)C(C(=O)NO)N(C)C(=O)c1ccc(-c2ccccc2)c(F)c1 (stereo not drawn) [Compound 61]
RESULT: 9.2

QUERY: Query: IC50; subject: CNC(=O)C(C(=O)NO)N(C)C(=O)c1ccc(-c2ccc(N(C)C)cc2)cc1 (stereo not drawn) [Compound 43]
RESULT: 7.2

QUERY: // query IC50 value for entry CNC(=O)C(C(=O)NO)N(C)C(=O)c1ccc(-c2ccc(NC)cc2)cc1 (stereo not drawn) [Compound 2]
RESULT: 7.1

QUERY: What value of measured IC50 is listed for CNC(=O)C(C(=O)NO)N(C)C(=O)c1ccc(-c2ccc(NCCCCCN3CCOCC3)cc2)cc1 (stereo not drawn) [Compound 58] ?
RESULT: 8.3

QUERY: Name the reported IC50 value associated with the molecule CNC(=O)C(C(=O)NO)N(C)C(=O)c1ccc(-c2ccc3c(c2)OCC3)cc1 (stereo not drawn) [Compound 271]
RESULT: 5

QUERY: Dear colleague, I am looking for the recorded IC50 of the following molecule: CNC(=O)C(C(=O)NO)N(C)C(=O)c1ccc(-c2ccccc2)cc1 (stereo not drawn) [Compound 1]
RESULT: 7.7

QUERY: # get_value(readout='IC50', item= CNC(=O)C(C(=O)NO)N(C)C(=O)c1ccc(-c2ccc3c(c2)OCO3)cc1 (stereo not drawn) [Compound 8] )
RESULT: 5

QUERY: Entry CNC(=O)C(C(=O)NO)N(C)C(=O)c1ccc(-c2ccc(OCCO)cc2)cc1 (stereo not drawn) [Compound 153] : reported IC50 = ?
RESULT: 5.7

QUERY: Fill in: IC50 of CNC(=O)C(C(=O)NO)N(C)C(=O)c1ccc(-c2ccc(C)cc2)cc1 (stereo not drawn) [Compound 5] is ___
RESULT: 3.7

QUERY: // returns reported IC50 for input CNC(=O)C(C(=O)NO)N(C)C(=O)c1ccc(-c2ccc(OC(F)(F)F)cc2)cc1 (stereo not drawn) [Compound 52]
RESULT: 4.6

QUERY: Data request, read-out IC50, for CNC(=O)C(C(=O)NO)N(C)C(=O)c1ccc(-c2ccc(C(F)(F)F)cc2)cc1 (stereo not drawn) [Compound 56]
RESULT: 6.7

QUERY: Query: IC50; subject: CNC(=O)C(C(=O)NO)N(C)C(=O)c1ccc(C#Cc2ccccc2)cc1 (stereo not drawn) [Compound 218]
RESULT: 7.2
